Every entry's value here was drawn from patent US11964990B2.

Experiment: Bioavailability study: pharmacokinetics after single intravenous or oral dose in mouse
Type: in vivo
Details: male, CD-1, mouse, plasma, po, 1 mg/kg, PO 1 mg/kg, individual animal
Experimental: Studies were conducted to evaluate the pharmacokinetic profiles of Example 25 herein and Example 2 in WO 2019/040550 after single intravenous or oral dose in mouse. CD-1 mice (male) were obtained from Charles River Laboratories (Wilmington, MA). The pharmacokinetics of Example 25 herein and Example 2 in WO 2019/040550 were evaluated following single 1 mg/kg intravenous or oral doses in mouse. […]
Metric: half-life (h)
Numbers only, in h.

// field: half-life; key: CO[C@@H]1CC[C@@H](CNc2ccc(S(=O)(=O)NC(=O)c3ccc(N4CCN5CC6=C(c7ccc(Cl)cc7)CC(C)(C)C[C@H]6OCCCOC[C@@H]5C4)cc3N3CCCOc4nc5[nH]ccc5cc43)cc2[N+](=O)[O-])OC1 ; value = 7.5

---

System: Molt-4 cells
Experiment: Cell viability counter screen assay (CellTiter-Glo) in Molt-4 cells
Format: cell-based
Details: 24 hours, 10% Human Serum, 50% decrease in cell viability
pEC50: −log10 of the molar value.
# 1 (yes) = pEC50 below 6 (exclusive); 0 (no) = pEC50 at/above 6

Here's what some known entries look like.
Compound	Discrete label
CC1(C)CC(c2ccc(Cl)cc2)=C2CN3CCN(c4ccc(C(=O)NS(=O)(=O)c5ccc(NC[C@H]6C[C@@](O)(CF)C6)c([N+](=O)[O-])c5)c(N5CCCOc6nc7[nH]ccc7cc65)c4)C[C@H]3COCCCO[C@@H]2C1 [Example 8]	1 (yes)
CC1(C)CC(c2ccc(Cl)cc2)=C2CN3CCN(c4ccc(C(=O)NS(=O)(=O)c5ccc(NC[C@H]6C[C@](O)(C7CCC7)C6)c([N+](=O)[O-])c5)c(N5CCCOc6nc7[nH]ccc7cc65)c4)C[C@H]3COCCCO[C@@H]2C1 [Example 15]	1 (yes)
CC1(C)CC(c2ccc(Cl)cc2)=C2CN3CCN(c4ccc(C(=O)NS(=O)(=O)c5ccc(OC[C@H]6CC[C@](C)(O)CC6)c(Cl)c5)c(N5CCCOc6nc7[nH]ccc7cc65)c4)C[C@H]3COCCCO[C@@H]2C1 [Example 43]	1 (yes)
CC1(C)CC(c2ccc(Cl)cc2)=C2CN3CCN(c4ccc(C(=O)NS(=O)(=O)c5ccc(NC[C@@H]6CC[C@@H](O)CO6)c([N+](=O)[O-])c5)c(N5CCCOc6nc7[nH]ccc7cc65)c4)C[C@H]3COCCCO[C@@H]2C1 [Example 27]	0 (no)
CC1(C)CC(c2ccc(Cl)cc2)=C2CN3CCN(c4ccc(C(=O)NS(=O)(=O)c5ccc(NCC6(O)CCOCC6)c([N+](=O)[O-])c5)c(N5CCCOc6nc7[nH]ccc7cc65)c4)C[C@H]3COCCCO[C@@H]2C1 [Example 18]	0 (no)
CO[C@H]1CC[C@H](CNc2ccc(S(=O)(=O)NC(=O)c3ccc(N4CCN5CC6=C(c7ccc(Cl)cc7)CC(C)(C)C[C@H]6OCCCOC[C@@H]5C4)cc3N3CCCOc4nc5[nH]ccc5cc43)cc2[N+](=O)[O-])OC1 [Example 13]	1 (yes)

We next turn to a different compound, shown below.
Lookup: # strict comparison: is reported pEC50 < 6? input = C[C@@H]1CO[C@@H](COc2ccc(S(=O)(=O)NC(=O)c3ccc(N4CCN5CC6=C(c7ccc(Cl)cc7)CC(C)(C)C[C@H]6OCCCOC[C@@H]5C4)cc3N3CCCOc4nc5[nH]ccc5cc43)cc2[N+](=O)[O-])CO1 [Example 20]
Found: 1 (yes)
